Every entry's value here was drawn from patent US7432303B2.

# Tested on: SVR cells
# EXPERIMENT NOTES: SVR cell assay: cell numbers counted at 48 hours, percent inhibition versus control
# Type: cell-based, murine
# PROTOCOL CONDITIONS: Mus musculus; 6 μg/ml; 10,000 SVR cells in 24 well dish; counted at 48 hours; read-out: Percent Inhibition at a Specified Density (μg/ml): 6
READOUT NAME: inhibition at 6 µg/mL (%)
Could you give me the number in %? Just the number is fine.

Example molecules with recorded inhibition at 6 µg/mL:
INSERT INTO assay_data (molecule, tested_target, unit_abbrev, reported_value) VALUES
  ('O=C(O)Cc1ccc(C(=O)/C=C/c2ccccc2)cc1', 'SVR cells', '%', 29.7),
  ('Cc1ccc(C(=O)/C=C/c2ccc(Cl)cc2)cc1', 'SVR cells', '%', 46.5),
  ('O=c1ccoc2ccccc12 [Compound 15, Chromone, reference compound]', 'SVR cells', '%', 20.8);

// lookup inhibition at 6 µg/mL for "COc1cccc(OC)c1/C=C/C(=O)c1c(OC)cccc1OC"
39.2

Queued: "COc1cccc(OC)c1/C=C/C(=O)c1ccccc1"
60.8

Queued: "O=C(/C=C/c1ccccc1)/C=C/c1ccccc1"
96.8

Queued: N#Cc1coc2c(Cl)cc(Cl)cc2c1=O [Compound 16, 6,8-Dichloro-3-cyanochromone, reference compound]
0

Queued: CC(=O)c1cc2ccccc2oc1=O [Compound 13, 3-Acetylcoumarin, reference compound]
13

====

Recorded Percent Inhibition at a Specified Density (μg/ml): 3, one value per entry.
# System: SVR cells
# EXPERIMENT NOTES: SVR cell assay: cell numbers counted at 48 hours, percent inhibition versus control
# Type: cell-based, murine
# PROTOCOL CONDITIONS: 3 μg/ml; 10,000 SVR cells in 24 well dish; counted at 48 hours
Form entry: enter the amount, then its unit.

Example compounds with recorded Percent Inhibition at a Specified Density (μg/ml): 3:
INSERT INTO results (compound, reported_value) VALUES
  ('O=C(C=Cc1ccc2ccccc2c1)c1ccc2ccccc2c1 [Compound 60, 1,3-Di(2-naphthyl)propenone]', '13.2%'),
  ('O=C(C=Cc1ccc2ccccc2c1)c1ccccc1 [Compound 62, 3-(2-Naphthyl)-1-phenylpropenone]', '29.5%'),
  ('O=C(C=Cc1ccc2ccccc2c1)c1c2ccccc2cc2ccccc12 [Compound 54, 1-(9-Anthryl)-3-(2-naphthyl)propenone]', '57.3%');

Now consider a different compound.
// lookup Percent Inhibition at a Specified Density (μg/ml): 3 for O=C1C(=Cc2cccc3ccccc23)CCc2ccccc21 [Compound 70, 2-(1-Naphthylidene)tetralone]
15.9%

====

Recorded Percent Inhibition at a Specified Density (μg/ml): 6, one value per entry.
# Test system: SVR cells
# EXPERIMENT NOTES: SVR cell assay: cell numbers counted at 48 hours, percent inhibition versus control
# Type: cell-based, murine
# PROTOCOL CONDITIONS: 6 μg/ml; 10,000 SVR cells in 24 well dish; counted at 48 hours
Could you give me the number in %? Just the number is fine.

Example molecules with recorded Percent Inhibition at a Specified Density (μg/ml): 6:
INSERT INTO assay_data (smiles_structure, reported_value) VALUES
  ('O=C(C=Cc1cccc2ccccc12)c1ccc2ccccc2c1', 50.3),
  ('O=C(C=Cc1ccccc1)c1ccc2ccccc2c1', 94.7);

// lookup Percent Inhibition at a Specified Density (μg/ml): 6 for "O=C(C=Cc1ccc2ccccc2c1)c1ccc2ccccc2c1"
20.3

Queued: "O=C1C(=Cc2ccccc2)CCC1=Cc1ccccc1"
38.6

Queued: "O=C(C=Cc1ccco1)c1ccccc1"
0.0

Queued: "O=C(C=Cc1cccc2ccccc12)c1cccc2ccccc12"
60.3

Queued: "O=C(C=Cc1ccccc1)c1ccc[nH]1"
19.4

====

# Tested on: SVR cells
# EXPERIMENT NOTES: SVR cell assay: cell numbers counted at 48 hours, percent inhibition versus control
# Format: cell-based, murine
# PROTOCOL CONDITIONS: 6 μg/ml; 10,000 SVR cells in 24 well dish; counted at 48 hours
READOUT NAME: Percent Inhibition at a Specified Density (μg/ml): 6 (%)
Could you give me the number in %? Just the number is fine.

Example compounds with recorded Percent Inhibition at a Specified Density (μg/ml): 6:
INSERT INTO measurements (smiles_structure, tested_target, reported_value) VALUES
  ('O=C(C=Cc1ccccc1)c1ccco1', 'SVR cells', 90.2),
  ('O=C1C(=Cc2c(Cl)cccc2Cl)COc2ccccc21', 'SVR cells', 12.5);

// lookup Percent Inhibition at a Specified Density (μg/ml): 6 for "O=C(C=Cc1ccc[nH]1)c1ccccc1"
0.0

Queued: "O=C(C=Cc1ccccc1)c1cccc2ccccc12"
68.0
